system-tested: human plasma proteins
protocol-notes: plasma protein binding, dialysis 4 h at 37 C, 2 µM, LC-MS/MS
Square brackets hold non-standard residues; d marks the D form. Primed or numbered codes have the meaning given here. Ends that are not written are not given here. * marks the point of attachment. DOTA = O=C(O)CN1CCN(CC(=O)O)CCN(CC(=O)*)CCN(CC(=O)O)CC1; Butanoyl(4-(4-I-phenyl)) = O=C(CCCc1ccc(I)cc1)*; Butanoyl(4-(4-MePh)) = Cc1ccc(CCCC(=O)*)cc1; PEG3′ = PEG3 spacer
binders and their reported Plasma % Bound
readout-label: Plasma % Bound (%)

[dH][dS][dH][dT][dA][PEG3′]K(Butanoyl(4-(4-MePh)))K(DOTA)-OH (triazole (positions not given here); not fully specified (N-terminus); printed as folate-hshta-PEG3-Lys(MPBA)-Lys(DOTA); numbers in words are those of the source; also: triazole macrocycle via Pra and Az4, places not given here) [Folate-hshta-PEG3-Lys(MPBA)-Lys(DOTA) (compound #2809)]
83.3
folate-[dH][dS][dH][dT][dA][PEG3′]GFK(DOTA) (triazole (positions not given here); numbers in words are those of the source; also: triazole macrocycle via Pra and Az4, places not given here) [Fol-hshta-PEG3-Gly-Phe-Lys(DOTA) (compound #6307)]
41.3
folate-[dH][dS][dH][dT][dA]K(Butanoyl(4-(4-I-phenyl)))MVK(DOTA)-OH (triazole (positions not given here); not fully specified; also: triazole macrocycle via Pra and Az4, places not given here) [Folate-hshta-Lys(IPBA)-M-V-Lys(DOTA) (compound #1306)]
97.3

From: patent US20240053349A1
